Test system: K562 cells
Assay: K562 cell viability
Assay type: cell-based
Measured Endpoint: EC50

>  <Smi>
CCCN(Cc1ccc(-c2ccccc2-c2nn[nH]n2)cc1)c1nc2ccccc2s1

>  <Measured On>
K562 cells

>  <EC50>
~1000 nM

$$$$

Okay, now this compound:
In: Fill blank: measured EC50 of the compound CCCCN(Cc1ccc(-c2ccccc2-c2nn[nH]n2)cc1)c1nc(C)cc(C)n1 is ____.
Out: ~310 nM
